Values from ChEMBL document CHEMBL2331392

Assay: Therapeutic index, ratio of CC50 for human C8166 cells to EC50 for HIV-1 3B infected in human C8166 cells
Type: cell-based
Conditions: C8166 cells (CC50) and HIV-1 3B infected C8166 cells (EC50)
parameter-measured: selectivity ratio
Give bare numbers.

Example entries and their recorded answers appear below.
molecule	selectivity ratio
COc1cc(O)cc2c1-c1c(O)cc(O)cc1C2=O	31.8
COc1ccc(-c2cc3cc4c(cc3o2)OC(C)(C)C=C4)cc1 [GRAMNIPHENOL G]	13.9
Oc1cc(O)cc(-c2cc3ccc(O)cc3o2)c1 [MORACIN M]	12.5
COc1ccc(/C=C/Cc2ccc(O)c(OC)c2OC)cc1O [CANDENATENIN A]	44.3
C/C=C/c1cc(OC)c(OC)cc1C(=O)c1cc(OC)c(OC)c(OC)c1 [GRAMNIPHENOL B]	106
COc1cc(O)cc2c1-c1c(O)ccc(O)c1C2=O	19.3

Provide the reported selectivity ratio of each entry below, same order.
1. CC1(C)C=Cc2cc3cc(-c4ccc(O)cc4)oc3cc2O1 [GRAMNIPHENOL F]
2. COc1ccc2c(c1)C=C[C@@H](c1ccc(O)c(C(=O)CCO)c1OC)O2 [GRAMNIPHENOL C]

Result:
1: 19.6; 2: 44.3
